These entries and their values trace back to the supplement of paper PMC12645437.

Biological target: T1, CRBN, Q96SW2;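 also: pooled lentiviral library of zinc finger degron-EGFP fusions in mCherry-positive Jurkat cells, FACS-sorted after compound exposure, with degron abundance counted by next-generation sequencing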
T1 chain: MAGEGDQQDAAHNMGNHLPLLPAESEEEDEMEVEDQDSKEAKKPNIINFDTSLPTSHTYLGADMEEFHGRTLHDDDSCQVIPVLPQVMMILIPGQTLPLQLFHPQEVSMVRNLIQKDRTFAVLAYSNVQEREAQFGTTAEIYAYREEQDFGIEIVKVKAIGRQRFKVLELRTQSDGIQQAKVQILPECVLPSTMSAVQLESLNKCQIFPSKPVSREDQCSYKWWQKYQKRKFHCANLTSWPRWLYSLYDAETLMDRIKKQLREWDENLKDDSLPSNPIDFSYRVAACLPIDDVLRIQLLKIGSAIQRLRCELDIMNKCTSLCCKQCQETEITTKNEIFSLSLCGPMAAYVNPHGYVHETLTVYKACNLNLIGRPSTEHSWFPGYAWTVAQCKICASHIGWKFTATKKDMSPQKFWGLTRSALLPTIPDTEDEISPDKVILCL
Experiment: log2 fold change of degron read counts, EGFP-low vs EGFP+ sorted cells (limma voom), compound-induced degradation; higher = more compound-induced degradation of the degron-EGFP fusion; degrons are variants of IKZF1/3 zinc finger 2; compound dose not given here
Conditions: Jurkat; 18 h; compound: thalidomide
In all, about 8,300 sequences were measured (“log2 fold change of degron read counts, EGFP-low vs EGFP+ sorted cells (limma voom), compound-induced degradation”: median about -1.1, highest 2% from about 3.2 on). This is one part of a sample in which the highest values are shown more often than they occur.
The following sequences are shown together with reported log2 fold change of degron read counts values.
assay-metric: log2 fold change of degron read counts

[[record]]
item_sequence = "LICPICGFRCTQKGNLLRHIKL [46L_47I_49P_50I_52G_53F_54R_55C_67L_, Q9UKT9]"
assay_metric = "log2 fold change of degron read counts"
assay_value = 2.84

[[record]]
item_sequence = "FTCPICGAGFTQKGNLLRHIKL [46F_47T_49P_50I_52G_53A_54G_55F_67L_, Q9UKT9]"
assay_metric = "log2 fold change of degron read counts"
assay_value = 2.4

[[record]]
item_sequence = "FSCDQCGAAFTQKGNLLRHIKL [46F_47S_49D_50Q_52G_53A_54A_55F_67L_, Q9UKT9]"
assay_metric = "log2 fold change of degron read counts"
assay_value = -2.08

[[record]]
item_sequence = "FHCEICGAMFTQKGNLLRHIKL [46F_47H_49E_50I_52G_53A_54M_55F_67L_, Q9UKT9]"
assay_metric = "log2 fold change of degron read counts"
assay_value = -0.251

[[record]]
item_sequence = "LWCPICGFRCTQKGNLLRHIKL [46L_47W_49P_50I_52G_53F_54R_55C_67L_, Q9UKT9]"
assay_metric = "log2 fold change of degron read counts"
assay_value = 2.05

[[record]]
item_sequence = "FYCPICGAGFTQKGNLLRHIKL [46F_47Y_49P_50I_52G_53A_54G_55F_67L_, Q9UKT9]"
assay_metric = "log2 fold change of degron read counts"
assay_value = -0.123

[[record]]
item_sequence = "FWCNVCGACFTQKGNLLRHIKL [46F_47W_49N_50V_52G_53A_54C_55F_67L_, Q9UKT9]"
assay_metric = "log2 fold change of degron read counts"
assay_value = -0.431

[[record]]
item_sequence = "FICEICGRAFTQKGNLLRHIKL [46F_47I_49E_50I_52G_53R_54A_55F_67L_, Q9UKT9]"
assay_metric = "log2 fold change of degron read counts"
assay_value = -0.306

[[record]]
item_sequence = "FDCEICGAMFTQKGNLLRHIKL [46F_47D_49E_50I_52G_53A_54M_55F_67L_, Q9UKT9]"
assay_metric = "log2 fold change of degron read counts"
assay_value = 0.217

[[record]]
item_sequence = "FLCPICGAGFTQKGNLLRHIKL [46F_47L_49P_50I_52G_53A_54G_55F_67L_, Q9UKT9]"
assay_metric = "log2 fold change of degron read counts"
assay_value = 1.01

[[record]]
item_sequence = "FECEICGAMFTQKGNLLRHIKL [46F_47E_49E_50I_52G_53A_54M_55F_67L_, Q9UKT9]"
assay_metric = "log2 fold change of degron read counts"
assay_value = 1.16

[[record]]
item_sequence = "FLCEICGAMFTQKGNLLRHIKL [46F_47L_49E_50I_52G_53A_54M_55F_67L_, Q9UKT9]"
assay_metric = "log2 fold change of degron read counts"
assay_value = 0.887

[[record]]
item_sequence = "FSCPICGRVFTQKGNLLRHIKL [46F_47S_49P_50I_52G_53R_54V_55F_67L_, Q9UKT9]"
assay_metric = "log2 fold change of degron read counts"
assay_value = 0.556

[[record]]
item_sequence = "FLCSVCGHQFTQKGNLLRHIKL [46F_47L_49S_50V_52G_53H_54Q_55F_67L_, Q9UKT9]"
assay_metric = "log2 fold change of degron read counts"
assay_value = -2.76

[[record]]
item_sequence = "FWCEICGAMFTQKGNLLRHIKL [46F_47W_49E_50I_52G_53A_54M_55F_67L_, Q9UKT9]"
assay_metric = "log2 fold change of degron read counts"
assay_value = 0.517

[[record]]
item_sequence = "FVCNVCGARFTQKGNLLRHIKL [46F_47V_49N_50V_52G_53A_54R_55F_67L_, Q9UKT9]"
assay_metric = "log2 fold change of degron read counts"
assay_value = 0.565

[[record]]
item_sequence = "FQCPICGAGFTQKGNLLRHIKL [46F_47Q_49P_50I_52G_53A_54G_55F_67L_, Q9UKT9]"
assay_metric = "log2 fold change of degron read counts"
assay_value = 3.69

[[record]]
item_sequence = "FCCEICGAMFTQKGNLLRHIKL [46F_47C_49E_50I_52G_53A_54M_55F_67L_, Q9UKT9]"
assay_metric = "log2 fold change of degron read counts"
assay_value = 1.39

[[record]]
item_sequence = "FACEICGAMFTQKGNLLRHIKL [46F_47A_49E_50I_52G_53A_54M_55F_67L_, Q9UKT9]"
assay_metric = "log2 fold change of degron read counts"
assay_value = -0.0211

[[record]]
item_sequence = "FNCEQCGAQFTQKGNLLRHIKL [46F_47N_49E_50Q_52G_53A_54Q_55F_67L_, Q9UKT9]"
assay_metric = "log2 fold change of degron read counts"
assay_value = -2.22

[[record]]
item_sequence = "FRCPQCGARFTQKGNLLRHIKL [46F_47R_49P_50Q_52G_53A_54R_55F_67L_, Q9UKT9]"
assay_metric = "log2 fold change of degron read counts"
assay_value = -1.27

[[record]]
item_sequence = "FVCPICGAGFTQKGNLLRHIKL [46F_47V_49P_50I_52G_53A_54G_55F_67L_, Q9UKT9]"
assay_metric = "log2 fold change of degron read counts"
assay_value = 2.98

[[record]]
item_sequence = "FSCDICGAAFTQKGNLLRHIKL [46F_47S_49D_50I_52G_53A_54A_55F_67L_, Q9UKT9]"
assay_metric = "log2 fold change of degron read counts"
assay_value = 0.487

[[record]]
item_sequence = "FVCNQCGRTFTQKGNLLRHIKL [46F_47V_49N_50Q_52G_53R_54T_55F_67L_, Q9UKT9]"
assay_metric = "log2 fold change of degron read counts"
assay_value = -2.6

[[record]]
item_sequence = "FACPICGAGFTQKGNLLRHIKL [46F_47A_49P_50I_52G_53A_54G_55F_67L_, Q9UKT9]"
assay_metric = "log2 fold change of degron read counts"
assay_value = 0.803

[[record]]
item_sequence = "FWCEICGHIFTQKGNLLRHIKL [46F_47W_49E_50I_52G_53H_54I_55F_67L_, Q9UKT9]"
assay_metric = "log2 fold change of degron read counts"
assay_value = -0.951

[[record]]
item_sequence = "FQCNQCGHNFTQKGNLLRHIKL [46F_47Q_49N_50Q_52G_53H_54N_55F_67L_, Q9UKT9]"
assay_metric = "log2 fold change of degron read counts"
assay_value = -2.77

[[record]]
item_sequence = "FDCNVCGASFTQKGNLLRHIKL [46F_47D_49N_50V_52G_53A_54S_55F_67L_, Q9UKT9]"
assay_metric = "log2 fold change of degron read counts"
assay_value = -0.475

[[record]]
item_sequence = "FDCPICGAGFTQKGNLLRHIKL [46F_47D_49P_50I_52G_53A_54G_55F_67L_, Q9UKT9]"
assay_metric = "log2 fold change of degron read counts"
assay_value = 1.11

